- measured_target: T1, human IL-1β (human, UniProt P01584 117-269)
- T1 construct: mature; also called mature human IL-1β; Interleukin-1β
- run_description: BIAcore, antibody captured on protein A CM5 chip, human IL-1β flowed
I'd appreciate it if you could supply Kd values for the items below.
Numbers only, in nM.

Hu007 analog G56V (antibody, human IgG1, kappa, V domains shown, IgG1; Heavy chain of Hu007 with G56V, co-transfected with the WT Hu007 light chain) VH: QVQLVQSGAEVKKPGASVKVSCKVSGYTFSRYWIEWVRQAPGKGLEWIGEILPGNVNINYNEKFKGKATITADTSTDTAYMELSSLRSEDTAVYYCSTIYYDYDQGFTYWGQGTLVTVSS VL: DIQMTQSPSSLSASVGDRVTITCKASQDIDRYLSWFQQKPGKAPKSLIYRVKRLVDGVPSRFSGSASGTDYTLTISSLQPEDFATYYCLQYDEFPYTFGQGTKLEIKR    0.0732

query: State its Kd for this binder: Hu007 analog N55D (antibody, human IgG1, kappa, V domains shown, IgG1; Heavy chain of Hu007 with N55D, co-transfected with the WT Hu007 light chain; It mimics fully deamidated Hu007; also called heavy chain CDR2 analog N55D) VH: QVQLVQSGAEVKKPGASVKVSCKVSGYTFSRYWIEWVRQAPGKGLEWIGEILPGDGNINYNEKFKGKATITADTSTDTAYMELSSLRSEDTAVYYCSTIYYDYDQGFTYWGQGTLVTVSS VL: DIQMTQSPSSLSASVGDRVTITCKASQDIDRYLSWFQQKPGKAPKSLIYRVKRLVDGVPSRFSGSASGTDYTLTISSLQPEDFATYYCLQYDEFPYTFGQGTKLEIKR
result: 0.149
